Reference source for all entries: patent US20210253568A1

pKi: −log10 of the molar value.
Observed pKi for ROCK 1 (Homo sapiens, UniProt Q13464), reported per entry below.

Smiles Code: c1cc(-c2c[nH]c3nccc(Oc4ccc5c(c4)CNCC5)c23)cc(NC[C@H]2CCCO2)n1
pKi: > 8.52
//
Smiles Code: c1cc(-c2c[nH]c3nccc(Oc4ccc5c(c4)CNCC5)c23)cc(NCC2CCOCC2)n1
pKi: > 8.52
//
Smiles Code: O=C(Nc1cc(-c2c[nH]c3nccc(Oc4ccc5c(c4)CNCC5)c23)ccn1)C1CCCCC1
pKi: > 8.52
//
Smiles Code: c1cc(-c2c[nH]c3nccc(Oc4ccc5c(c4)CNCC5)c23)cc(N2CCOCC2)n1
pKi: > 8.52
//
Smiles Code: NCc1ccc(Oc2ccnc3[nH]cc(-c4cc(NCc5ccccc5)ncn4)c23)c(F)c1
pKi: > 8.52
//
Smiles Code: NCc1ccc(Oc2ccnc3[nH]cc(-c4ccnc(NCc5ccccc5)n4)c23)c(F)c1
pKi: 7.52 to 8.52

What value of pKi has been reported for the following compound? `c1ccc(CNc2cc(-c3c[nH]c4nccc(Oc5cnc6c(c5)CNCC6)c34)ccn2)cc1`
< 7.52

What value of pKi has been reported for the following compound? `O=C(Nc1cc(-c2c[nH]c3nccc(Oc4ccc5c(c4)CNCC5)c23)ccn1)C1CCOCC1`
> 8.52

* * *

Ki values for the molecules below.
# Target Or System: ROCK 1 (Homo sapiens, UniProt Q13464)
# Sequence (Q13464 whole entry): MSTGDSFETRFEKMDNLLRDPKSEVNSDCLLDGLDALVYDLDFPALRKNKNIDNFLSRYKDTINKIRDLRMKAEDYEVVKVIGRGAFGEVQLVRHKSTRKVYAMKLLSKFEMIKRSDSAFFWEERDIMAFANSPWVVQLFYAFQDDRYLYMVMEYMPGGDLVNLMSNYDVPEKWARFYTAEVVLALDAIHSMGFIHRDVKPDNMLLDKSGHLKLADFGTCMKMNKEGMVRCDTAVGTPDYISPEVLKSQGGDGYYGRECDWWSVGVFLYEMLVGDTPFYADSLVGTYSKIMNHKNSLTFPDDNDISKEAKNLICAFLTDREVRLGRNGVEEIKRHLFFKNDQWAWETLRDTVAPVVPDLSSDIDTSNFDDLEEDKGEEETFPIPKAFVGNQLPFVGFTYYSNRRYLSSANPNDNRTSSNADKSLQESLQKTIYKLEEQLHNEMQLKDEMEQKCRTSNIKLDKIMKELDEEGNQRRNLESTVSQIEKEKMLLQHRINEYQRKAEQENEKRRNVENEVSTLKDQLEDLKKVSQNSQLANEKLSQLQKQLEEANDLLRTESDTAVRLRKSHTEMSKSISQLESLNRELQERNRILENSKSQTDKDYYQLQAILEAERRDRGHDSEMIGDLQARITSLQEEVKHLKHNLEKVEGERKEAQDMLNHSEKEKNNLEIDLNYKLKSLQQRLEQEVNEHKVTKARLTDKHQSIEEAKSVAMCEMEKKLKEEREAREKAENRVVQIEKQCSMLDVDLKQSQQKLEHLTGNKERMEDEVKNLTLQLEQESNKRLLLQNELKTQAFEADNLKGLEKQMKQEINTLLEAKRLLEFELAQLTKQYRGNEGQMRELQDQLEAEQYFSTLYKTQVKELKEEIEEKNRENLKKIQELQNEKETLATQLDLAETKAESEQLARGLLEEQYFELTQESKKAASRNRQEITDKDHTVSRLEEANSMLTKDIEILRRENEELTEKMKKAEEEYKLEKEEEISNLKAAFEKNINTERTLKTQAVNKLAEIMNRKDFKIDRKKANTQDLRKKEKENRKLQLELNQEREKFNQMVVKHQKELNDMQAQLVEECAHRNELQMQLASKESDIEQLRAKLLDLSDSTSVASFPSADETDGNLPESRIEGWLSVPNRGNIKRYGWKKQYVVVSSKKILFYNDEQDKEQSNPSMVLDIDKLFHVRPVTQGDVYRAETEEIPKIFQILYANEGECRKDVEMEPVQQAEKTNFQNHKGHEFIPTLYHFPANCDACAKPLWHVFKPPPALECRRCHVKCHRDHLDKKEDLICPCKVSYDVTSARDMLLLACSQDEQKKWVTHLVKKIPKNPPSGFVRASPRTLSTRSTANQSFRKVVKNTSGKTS

Worked examples, 3 molecules total:
Molecule: c1nc(NCc2nccs2)cc(-c2c[nH]c3nccc(Oc4ccc5c(c4)CNCC5)c23)n1 [Example 30]
Target Or System: ROCK 1 (Homo sapiens, UniProt Q13464)
Recorded Result: < 3 nM
//
Molecule: NCc1cc(F)c(Oc2ccnc3[nH]cc(-c4ccnc(NC(=O)C5CC5)c4)c23)c(F)c1 [Example 11]
Target Or System: ROCK 1 (Homo sapiens, UniProt Q13464)
Recorded Result: < 3 nM
//
Molecule: C[C@H](Nc1cc(-c2c[nH]c3nccc(Oc4ccc5c(c4)CNCC5)c23)ncn1)c1ccccc1 [Example 54]
Target Or System: ROCK 1 (Homo sapiens, UniProt Q13464)
Recorded Result: 3 to 30 nM

What value of Ki has been reported for the following molecule? C[C@@H](Nc1cc(-c2c[nH]c3nccc(Oc4ccc5c(c4)CNCC5)c23)ncn1)c1ccccc1 [Example 52]
< 3 nM

What value of Ki has been reported for the following molecule? NCc1ccc(Oc2ccnc3[nH]cc(-c4cnc(NC(=O)Cc5ccccc5)s4)c23)cc1 [Example 34]
3 to 30 nM

What value of Ki has been reported for the following molecule? Cc1ccc(S(=O)(=O)CCNc2cc(-c3c[nH]c4nccc(Oc5c(F)cc(CN)cc5F)c34)ncn2)cc1 [Example 4]
< 3 nM

What value of Ki has been reported for the following molecule? NCc1ccc(Oc2ccnc3[nH]cc(-c4cnn(Cc5ccccc5)c4)c23)c(F)c1 [Example 22]
< 3 nM

What value of Ki has been reported for the following molecule? c1cc(-c2c[nH]c3nccc(Oc4ccc5c(c4)CNCC5)c23)ccn1 [Example 1]
< 3 nM

What value of Ki has been reported for the following molecule? NCc1ccc(Oc2ccnc3[nH]cc(-c4ccnc(NCc5ccccc5)c4)c23)c(F)c1 [Example 33]
3 to 30 nM

What value of Ki has been reported for the following molecule? O=C(Cc1ccccc1)Nc1nnc(-c2c[nH]c3nccc(Oc4ccc5c(c4)CNCC5)c23)o1 [Example 14]
< 3 nM

What value of Ki has been reported for the following molecule? O=C(NCc1ccccc1)c1cc(-c2c[nH]c3nccc(Oc4ccc5c(c4)CNCC5)c23)on1 [Example 13]
3 to 30 nM

What value of Ki has been reported for the following molecule? CN(C(=O)Nc1cc(-c2c[nH]c3nccc(Oc4ccc5c(c4)CNCC5)c23)ccn1)C1CCOCC1 [Example 48]
3 to 30 nM

What value of Ki has been reported for the following molecule? CN(C(=O)Nc1cc(-c2c[nH]c3nccc(Oc4ccc5c(c4)CNCC5)c23)ccn1)C1CCCCC1 [Example 47]
< 3 nM

What value of Ki has been reported for the following molecule? NCc1ccc(Oc2ccnc3[nH]cc(-c4cccc(OCc5ccccc5)c4)c23)cc1 [Example 3]
> 30 nM
